Molecular target: Muscarinic acetylcholine receptor M1 (Rattus norvegicus, UniProt P08482)
Sequence (P08482 whole entry): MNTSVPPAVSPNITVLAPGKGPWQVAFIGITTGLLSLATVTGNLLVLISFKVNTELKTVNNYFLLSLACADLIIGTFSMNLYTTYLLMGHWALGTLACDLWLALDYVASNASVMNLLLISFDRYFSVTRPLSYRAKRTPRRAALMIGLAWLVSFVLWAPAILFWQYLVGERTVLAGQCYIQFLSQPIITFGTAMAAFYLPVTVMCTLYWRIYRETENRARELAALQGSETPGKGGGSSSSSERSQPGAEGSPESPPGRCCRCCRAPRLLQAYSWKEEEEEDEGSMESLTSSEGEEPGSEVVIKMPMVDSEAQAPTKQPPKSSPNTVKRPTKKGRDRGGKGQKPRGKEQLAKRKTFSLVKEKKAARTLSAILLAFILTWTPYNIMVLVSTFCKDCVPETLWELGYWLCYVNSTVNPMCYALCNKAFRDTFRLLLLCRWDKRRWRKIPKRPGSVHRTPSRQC
property.measured: pKi
Numbers only, as −log10 of the molar value.

Ask: I'd like to know its pKi. The compound in question is CN1CCC=C(C2CN(C(=O)c3ccccc3[N+](=O)[O-])CCO2)C1 (stereo unspecified)
Reply: 3.90
